B1: C20orf112 (parent)
chain: YANGGLNYSYRGYGALSSNLQPPA

variants of: B1; experiment: protein stability index of a GFP-peptide fusion (GPS, HEK-293T) (PSI 1-6); higher = more stable; details: c terminus: a fixed tail appended;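 further: lentivirally expressed fusions sorted by FACS into six bins by GFP to DsRed ratio, PSI derived from sequencing read proportions per bin multiplied by bin number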
I'd be grateful if you could share measured protein stability index for these entries.
One number for each entry.

{"columns": ["mutation_name", "readout_kind", "endpoint_value"],
 "data": [
  ["G5V", "protein stability index", 2.03]
]}

Hi! Can you tell me protein stability index for each of these variants?
1. N19A
2. S17V
3. G4I
4. G4W
5. S17M
6. G12C

**Result**
1: 1.71; 2: 2.33; 3: 1.93; 4: 1.99; 5: 2.17; 6: 2.85
